Values were extracted from paper PMC2892117.

tested on: T. b. r. STIB 900; test: STIB900 mouse model for acute African trypanosomiasis; assay type: in vivo; conditions: Mus musculus, ip, 1440 h, read-out: Cures
Listing of entries alongside the reported responders at 5 mg/kg.
Unit % implied. Number only.

In the examples that follow, each entry is paired with its recorded responders at 5 mg/kg.
N=C(N)c1ccc(-c2cnc(-c3ccc(C(=N)N)cn3)s2)cc1 [5c]; 0
N=C(N)c1ccc(-c2ccc(-c3ccc(C(=N)N)cc3)s2)cc1 [IIe, reference compound]; 50
N=C(N)c1ccc(-c2ncc(-c3ccc(C(=N)N)nc3)s2)nc1 [5f]; 0
Cl.Cl.N=C(N)c1ccc(-c2cnc(-c3ccc(C(=N)N)cc3)s2)cc1 [5a]; 25
Cl.Cl.N=C(N)c1ccc(-c2cnc(-c3ccc(C(=N)N)cn3)s2)nc1 [5g]; 0

Record N=C(N)c1ccc(OCCCCCOc2ccc(C(=N)N)cc2)cc1 [I, pentamidine, reference compound] , field responders at 5 mg/kg: 50

responders at 5 mg/kg for Cl.Cl.N=C(N)c1ccc(-c2ncc(-c3ccc(C(=N)N)nc3)s2)cc1 [5d] is 0

Input N=C(N)c1ccc(-c2cnc(-c3ccc(C(=N)N)nc3)s2)cc1 [5b] . Output responders at 5 mg/kg: 0

Item: N=C(N)c1ccc(-c2ccc(-c3ccc(C(=N)N)cn3)o2)cc1 [IIc, azafuramidine, reference compound] | responders at 5 mg/kg: 75

Entry under test: Cl.Cl.N=C(N)c1ccc(-c2cnc(-c3ccc(C(=N)N)nc3)s2)cn1 [5e] . Its responders at 5 mg/kg was 0

###

Reported Survival values for the following molecules.
tested on: T. b. r. STIB 900; assay: STIB900 mouse model for acute African trypanosomiasis; format: in vivo; settings: po, 4 × 25 mg/kg; average days of mice survival
API: value field is a number in days; no unit string.

Recorded results for 3 molecules are shown here.
CO/N=C(\N)c1ccc(-c2cnc(-c3ccc(/C(N)=N\OC)cn3)s2)cc1.Cl.Cl [7c]; 35
Cl.Cl.N/C(=N\O)c1ccc(-c2ncc(-c3ccc(/C(N)=N\O)nc3)s2)cc1 [6d]; 36.75
Cl.Cl.N/C(=N\O)c1ccc(-c2cnc(-c3ccc(/C(N)=N\O)cn3)s2)cc1 [6c]; 24

For record CO/N=C(/N)c1ccc(-c2cnc(-c3ccc(/C(N)=N\OC)cc3)s2)cc1.Cl.Cl [7a] the listed Survival is 41

Recorded Survival (molecule Cl.Cl.N/C(=N\O)c1ccc(-c2cnc(-c3ccc(/C(N)=N\O)cn3)s2)nc1 [6g] ): 9

// Survival lookup, molecule = CO/N=C(\N)c1ccc(-c2cnc(-c3ccc(/C(N)=N/OC)nc3)s2)cc1.Cl [7b] , result: 42.75

###

test system: T. b. r. STIB 900; test: STIB900 mouse model for acute African trypanosomiasis; assay type: in vivo; conditions: po, 4 × 25 mg/kg; average days of mice survival
Quick list: Survival per entry.

Sample records with Survival:
Cl.Cl.N/C(=N\O)c1ccc(-c2cnc(-c3ccc(/C(N)=N\O)nc3)s2)cn1; >37.5 days
CONC(=N)c1ccc(-c2ccc(-c3ccc(C(=N)NOC)cc3)o2)cc1 [IIb, Pafuramidine, reference compound]; > 60 days

Next item in the queue.
Param item: `CO/N=C(\N)c1ccc(-c2cnc(-c3ccc(/C(N)=N\OC)nc3)s2)cn1.Cl.Cl` ; param system: T. b. r. STIB 900; output Survival: >47.25 days
